System: S. aureus RN4220
Procedure Details: growth inhibition call (relative growth <= 0.2)
Settings: 50 µM
Out of some 39,000 compounds screened, about 500 (1.3%) were called active. The full list was thinned out, with actives kept by preference.
Labels: active, inactive

| Molecule | Label |
| --- | --- |
| C[C@H]1CN([C@@H](C)CO)C(=O)CCCn2nncc2CO[C@@H]1CN(C)C(=O)Oc1ccc2ccccc2c1 | inactive |
| CC(=O)NN1Cc2ccccc2C1=N | inactive |
| NCCO.NCCO.O[AsH]O[AsH]O (stereo not drawn) | inactive |
| NCCc1nnc2n1CCCCC2 | inactive |
| CNC1C(O)C(OC2C(N)CC(N)C(OC3OC(C(C)O)C(O)C(O)C3N)C2O)OCC1(C)O (stereo not drawn) | active |
| NC(=O)[C@H]1CNC(=O)C1 | inactive |
| CN1C(=O)[C@@]23C[C@]4([C@@]56C[C@]78SS[C@](CO)(C(=O)N7[C@@H]5Nc5ccccc56)N(C)C8=O)c5ccccc5N[C@H]4N2C(=O)[C@@]1(CO)SS3 | active |
| CO[C@@H]1C=C[C@@H]2[C@H]1N2CCCO (stereo partly drawn) | inactive |
